Reference source for all entries: ChEMBL document CHEMBL1154622

Assay: Oral bioavailability in mouse at 33 mg/kg
Assay type: ADME, organism-based
Details: in vivo
measured-parameter: bioavailability (%)
The response must be a number in % with no trailing unit.

Query :: Output bioavailability of `Cc1cnc(Nc2ccc(F)cc2Cl)nc1-c1c[nH]c(C(=O)N[C@H](CO)c2cccc(Cl)c2)c1`
Result :: 67

====

pKi: −log10 of the molar value.
measured-parameter: pKi

Query :: Provide Serine/threonine-protein kinase PLK1 (Homo sapiens, UniProt P53350) pKi reading for `Cc1cnc(Nc2ccc(F)cc2Cl)nc1-c1c[nH]c(C(=O)N[C@H](CO)c2cccc(Cl)c2)c1` .
Result :: < 5.40

====

Assay: Plasma concentration in rat at 10 mg/kg, po after 4 hrs
Assay type: ADME, organism-based
Design: dose 10 mg/kg, route oral
measured-parameter: concentration at 4 h (ng/mL)
The response must be a number in ng/mL with no trailing unit.

Query :: Output concentration at 4 h of `Cc1cnc(Nc2ccc(F)cc2Cl)nc1-c1c[nH]c(C(=O)N[C@H](CO)c2cccc(Cl)c2)c1`
Result :: 329

====

Target: Mitogen-activated protein kinase kinase kinase 7 (Homo sapiens)
Sequence (O43318 whole entry): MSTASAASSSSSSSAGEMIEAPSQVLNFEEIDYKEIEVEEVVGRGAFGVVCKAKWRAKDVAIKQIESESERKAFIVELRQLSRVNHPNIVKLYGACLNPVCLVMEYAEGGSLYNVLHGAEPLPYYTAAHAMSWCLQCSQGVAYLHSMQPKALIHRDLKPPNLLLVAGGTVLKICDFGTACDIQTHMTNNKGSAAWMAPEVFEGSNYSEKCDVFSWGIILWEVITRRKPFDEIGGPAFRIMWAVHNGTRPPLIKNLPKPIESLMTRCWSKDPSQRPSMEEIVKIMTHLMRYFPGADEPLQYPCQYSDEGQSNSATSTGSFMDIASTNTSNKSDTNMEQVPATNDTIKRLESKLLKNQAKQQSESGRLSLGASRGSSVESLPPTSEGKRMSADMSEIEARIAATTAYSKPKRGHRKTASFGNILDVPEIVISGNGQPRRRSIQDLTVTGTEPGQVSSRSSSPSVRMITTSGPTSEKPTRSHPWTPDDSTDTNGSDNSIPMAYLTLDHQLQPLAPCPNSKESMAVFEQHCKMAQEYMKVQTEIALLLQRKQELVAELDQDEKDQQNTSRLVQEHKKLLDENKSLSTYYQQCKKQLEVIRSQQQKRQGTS
Assay: Inhibition of TAK1
measured-parameter: Ki
// unit must come after the numeric part

Query :: Output Ki of `Cc1cnc(Nc2ccc(F)cc2Cl)nc1-c1c[nH]c(C(=O)N[C@H](CO)c2cccc(Cl)c2)c1`
Result :: 3 µM

====

Target: Tyrosine-protein kinase ITK/TSK (Homo sapiens, UniProt Q08881)
Sequence (Q08881 whole entry): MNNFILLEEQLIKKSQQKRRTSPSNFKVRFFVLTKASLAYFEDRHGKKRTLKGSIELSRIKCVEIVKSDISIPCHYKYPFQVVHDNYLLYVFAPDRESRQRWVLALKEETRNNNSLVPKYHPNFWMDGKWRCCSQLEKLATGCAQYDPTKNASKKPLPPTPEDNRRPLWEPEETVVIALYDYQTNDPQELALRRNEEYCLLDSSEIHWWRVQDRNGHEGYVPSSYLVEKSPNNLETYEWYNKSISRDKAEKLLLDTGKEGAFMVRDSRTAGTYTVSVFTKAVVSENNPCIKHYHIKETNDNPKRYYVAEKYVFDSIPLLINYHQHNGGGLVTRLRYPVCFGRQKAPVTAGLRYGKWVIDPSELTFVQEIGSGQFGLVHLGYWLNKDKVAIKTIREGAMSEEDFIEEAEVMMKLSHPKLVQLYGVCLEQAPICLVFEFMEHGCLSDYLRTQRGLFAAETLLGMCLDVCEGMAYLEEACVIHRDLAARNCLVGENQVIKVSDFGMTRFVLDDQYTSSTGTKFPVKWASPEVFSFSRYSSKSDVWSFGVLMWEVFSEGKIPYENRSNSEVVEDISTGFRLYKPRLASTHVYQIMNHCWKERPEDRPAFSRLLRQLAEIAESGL
pKi: −log10 of the molar value.
measured-parameter: pKi

Query :: Output pKi of `Cc1cnc(Nc2ccc(F)cc2Cl)nc1-c1c[nH]c(C(=O)N[C@H](CO)c2cccc(Cl)c2)c1`
Result :: < 5.40

====

measured-parameter: Ki

Query :: Provide UniProt P51617 Ki reading for `Cc1cnc(Nc2ccc(F)cc2Cl)nc1-c1c[nH]c(C(=O)N[C@H](CO)c2cccc(Cl)c2)c1` .
Sequence (P51617 whole entry): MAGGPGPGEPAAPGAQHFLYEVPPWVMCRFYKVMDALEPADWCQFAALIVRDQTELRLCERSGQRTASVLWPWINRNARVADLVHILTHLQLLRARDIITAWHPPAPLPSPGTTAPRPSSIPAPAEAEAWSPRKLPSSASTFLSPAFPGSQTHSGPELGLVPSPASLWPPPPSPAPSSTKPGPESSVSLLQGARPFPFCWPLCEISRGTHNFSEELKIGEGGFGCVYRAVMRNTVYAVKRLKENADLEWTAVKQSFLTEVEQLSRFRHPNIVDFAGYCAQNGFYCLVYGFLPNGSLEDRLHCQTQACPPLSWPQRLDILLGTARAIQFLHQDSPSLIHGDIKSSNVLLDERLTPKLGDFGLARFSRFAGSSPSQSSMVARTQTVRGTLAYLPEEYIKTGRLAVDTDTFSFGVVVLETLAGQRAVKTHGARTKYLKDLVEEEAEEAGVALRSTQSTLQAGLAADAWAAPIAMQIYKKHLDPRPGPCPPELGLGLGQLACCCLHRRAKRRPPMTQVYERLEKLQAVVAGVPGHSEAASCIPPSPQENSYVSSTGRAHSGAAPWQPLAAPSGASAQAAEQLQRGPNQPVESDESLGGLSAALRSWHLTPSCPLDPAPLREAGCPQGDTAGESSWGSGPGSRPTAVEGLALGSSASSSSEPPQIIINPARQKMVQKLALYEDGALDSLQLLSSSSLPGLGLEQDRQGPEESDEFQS
Result :: > 10 µM

====

Assay: Plasma concentration in rat at 10 mg/kg, po after 8 hrs
Format: ADME, organism-based
Design: dose 10 mg/kg, route oral
measured-parameter: concentration at 8 h (ng/mL)
The response must be a number in ng/mL with no trailing unit.

Query :: Output concentration at 8 h of `Cc1cnc(Nc2ccc(F)cc2Cl)nc1-c1c[nH]c(C(=O)N[C@H](CO)c2cccc(Cl)c2)c1`
Result :: 267

====

Biological target: Mitogen-activated protein kinase 10 (Homo sapiens, UniProt P53779)
Sequence (P53779 whole entry): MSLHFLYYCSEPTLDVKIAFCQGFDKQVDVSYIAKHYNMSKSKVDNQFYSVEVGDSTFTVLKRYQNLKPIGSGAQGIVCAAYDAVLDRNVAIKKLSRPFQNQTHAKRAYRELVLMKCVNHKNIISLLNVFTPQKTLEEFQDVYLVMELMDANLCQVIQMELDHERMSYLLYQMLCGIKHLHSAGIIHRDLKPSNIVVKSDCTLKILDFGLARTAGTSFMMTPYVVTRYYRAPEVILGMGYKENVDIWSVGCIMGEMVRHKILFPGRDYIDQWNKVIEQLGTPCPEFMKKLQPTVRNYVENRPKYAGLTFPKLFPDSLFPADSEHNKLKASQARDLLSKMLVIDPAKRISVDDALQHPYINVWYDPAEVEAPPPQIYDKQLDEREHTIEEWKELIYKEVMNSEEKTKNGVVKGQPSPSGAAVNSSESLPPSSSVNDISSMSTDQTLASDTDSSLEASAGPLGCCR
Test: Inhibition of JNK3
measured-parameter: Ki (nM)
The response must be a number in nM with no trailing unit.

Query :: Provide Mitogen-activated protein kinase 10 (Homo sapiens, UniProt P53779) Ki reading for `Cc1cnc(Nc2ccc(F)cc2Cl)nc1-c1c[nH]c(C(=O)N[C@H](CO)c2cccc(Cl)c2)c1` .
Result :: 1400

====

Assay: AUC (0 to 8 hrs) in rat at 3 mg/kg, iv
Type: ADME, organism-based
Design: time < 8 hr, dose 3 mg/kg, route intravenous
Details: plasma
measured-parameter: AUC(0-t) at 8 h
// unit must come after the numeric part

Query :: Output AUC(0-t) at 8 h of `Cc1cnc(Nc2ccc(F)cc2Cl)nc1-c1c[nH]c(C(=O)N[C@H](CO)c2cccc(Cl)c2)c1`
Result :: 1600 ng·h/mL

====

Experiment: Clearance in rat at 3 mg/kg, iv
Format: ADME, organism-based
Design: dose 3 mg/kg, route intravenous
Details: in vivo
measured-parameter: clearance (mL/min/kg)
The response must be a number in mL/min/kg with no trailing unit.

Query :: Output clearance of `Cc1cnc(Nc2ccc(F)cc2Cl)nc1-c1c[nH]c(C(=O)N[C@H](CO)c2cccc(Cl)c2)c1`
Result :: 24

====

Target: Hepatocyte growth factor receptor (Homo sapiens, UniProt P08581)
Sequence (P08581 whole entry): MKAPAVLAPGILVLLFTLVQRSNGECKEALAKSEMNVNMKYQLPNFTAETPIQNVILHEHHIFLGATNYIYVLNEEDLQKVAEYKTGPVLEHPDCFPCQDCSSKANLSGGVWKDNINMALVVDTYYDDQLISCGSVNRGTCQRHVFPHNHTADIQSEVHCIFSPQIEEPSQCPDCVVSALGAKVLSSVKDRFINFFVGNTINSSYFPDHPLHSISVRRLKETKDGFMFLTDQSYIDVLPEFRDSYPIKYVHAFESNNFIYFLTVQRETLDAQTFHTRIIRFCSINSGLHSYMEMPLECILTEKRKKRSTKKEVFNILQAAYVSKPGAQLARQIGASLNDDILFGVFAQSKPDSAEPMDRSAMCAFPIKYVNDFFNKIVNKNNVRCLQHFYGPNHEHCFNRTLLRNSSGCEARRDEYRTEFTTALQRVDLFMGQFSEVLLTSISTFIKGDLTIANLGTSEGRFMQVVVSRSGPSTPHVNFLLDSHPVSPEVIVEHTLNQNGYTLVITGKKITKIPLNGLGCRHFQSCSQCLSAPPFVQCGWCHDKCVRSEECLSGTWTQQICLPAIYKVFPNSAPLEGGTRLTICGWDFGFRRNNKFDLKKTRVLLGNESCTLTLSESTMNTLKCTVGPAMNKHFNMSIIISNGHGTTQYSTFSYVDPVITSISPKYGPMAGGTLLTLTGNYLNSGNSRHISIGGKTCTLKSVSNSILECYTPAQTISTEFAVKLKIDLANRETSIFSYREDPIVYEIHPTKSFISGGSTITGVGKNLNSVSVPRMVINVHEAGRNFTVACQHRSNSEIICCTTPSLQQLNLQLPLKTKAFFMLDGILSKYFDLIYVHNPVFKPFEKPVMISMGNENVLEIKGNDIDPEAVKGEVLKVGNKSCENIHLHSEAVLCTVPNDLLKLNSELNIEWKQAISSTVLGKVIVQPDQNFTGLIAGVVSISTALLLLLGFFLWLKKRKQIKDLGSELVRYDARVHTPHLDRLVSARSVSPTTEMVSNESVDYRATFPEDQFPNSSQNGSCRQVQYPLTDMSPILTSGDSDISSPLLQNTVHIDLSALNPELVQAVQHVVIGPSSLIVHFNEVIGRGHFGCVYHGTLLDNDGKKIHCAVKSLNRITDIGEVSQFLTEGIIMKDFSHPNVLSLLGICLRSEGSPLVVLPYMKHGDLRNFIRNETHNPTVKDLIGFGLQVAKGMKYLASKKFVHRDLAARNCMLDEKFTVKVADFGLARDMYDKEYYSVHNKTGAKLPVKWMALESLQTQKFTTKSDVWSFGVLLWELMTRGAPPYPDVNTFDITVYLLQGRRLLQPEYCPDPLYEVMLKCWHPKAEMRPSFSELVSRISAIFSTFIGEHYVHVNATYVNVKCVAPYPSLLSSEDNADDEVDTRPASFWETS
measured-parameter: Ki

Query :: Output Ki of `Cc1cnc(Nc2ccc(F)cc2Cl)nc1-c1c[nH]c(C(=O)N[C@H](CO)c2cccc(Cl)c2)c1`
Result :: > 4 µM

====

Test: Clearance in mouse at 5 mg/kg, iv
Type: ADME, organism-based
Set-up: dose 5 mg/kg, route intravenous
Details: in vivo
measured-parameter: clearance (mL/min/kg)
The response must be a number in mL/min/kg with no trailing unit.

Query :: Output clearance of `Cc1cnc(Nc2ccc(F)cc2Cl)nc1-c1c[nH]c(C(=O)N[C@H](CO)c2cccc(Cl)c2)c1`
Result :: 55

====

Assay: Inhibition of PKA
pKi: −log10 of the molar value.
measured-parameter: pKi

Query :: Output pKi of `Cc1cnc(Nc2ccc(F)cc2Cl)nc1-c1c[nH]c(C(=O)N[C@H](CO)c2cccc(Cl)c2)c1`
Result :: < 5.40

====

Assay: Half life in rat at 3 mg/kg, iv
Type: ADME, organism-based
Parameters: dose 3 mg/kg, route intravenous
Conditions: in vivo
measured-parameter: half-life

Query :: Output half-life of `Cc1cnc(Nc2ccc(F)cc2Cl)nc1-c1c[nH]c(C(=O)N[C@H](CO)c2cccc(Cl)c2)c1`
Result :: 3.2 h

====

Assay: Half life in mouse at 33 mg/kg, po
Type: ADME, organism-based
Set-up: dose 33 mg/kg, route oral
Settings: in vivo
measured-parameter: half-life
// unit must come after the numeric part

Query :: Output half-life of `Cc1cnc(Nc2ccc(F)cc2Cl)nc1-c1c[nH]c(C(=O)N[C@H](CO)c2cccc(Cl)c2)c1`
Result :: 4.4 h

====

Assay: Plasma concentration in rat at 3 mg/kg, iv after 8 hrs
Format: ADME, organism-based
Design: dose 3 mg/kg, route intravenous
measured-parameter: concentration at 8 h

Query :: Output concentration at 8 h of `Cc1cnc(Nc2ccc(F)cc2Cl)nc1-c1c[nH]c(C(=O)N[C@H](CO)c2cccc(Cl)c2)c1`
Result :: 50 ng/mL

====

Test: Half life in rat at 10 mg/kg, po
Assay type: ADME, organism-based
Set-up: dose 10 mg/kg, route oral
Conditions: in vivo
measured-parameter: half-life
// unit must come after the numeric part

Query :: Output half-life of `Cc1cnc(Nc2ccc(F)cc2Cl)nc1-c1c[nH]c(C(=O)N[C@H](CO)c2cccc(Cl)c2)c1`
Result :: 3 h

====

Target: Tyrosine-protein kinase ZAP-70 (Homo sapiens)
Sequence (P43403 whole entry): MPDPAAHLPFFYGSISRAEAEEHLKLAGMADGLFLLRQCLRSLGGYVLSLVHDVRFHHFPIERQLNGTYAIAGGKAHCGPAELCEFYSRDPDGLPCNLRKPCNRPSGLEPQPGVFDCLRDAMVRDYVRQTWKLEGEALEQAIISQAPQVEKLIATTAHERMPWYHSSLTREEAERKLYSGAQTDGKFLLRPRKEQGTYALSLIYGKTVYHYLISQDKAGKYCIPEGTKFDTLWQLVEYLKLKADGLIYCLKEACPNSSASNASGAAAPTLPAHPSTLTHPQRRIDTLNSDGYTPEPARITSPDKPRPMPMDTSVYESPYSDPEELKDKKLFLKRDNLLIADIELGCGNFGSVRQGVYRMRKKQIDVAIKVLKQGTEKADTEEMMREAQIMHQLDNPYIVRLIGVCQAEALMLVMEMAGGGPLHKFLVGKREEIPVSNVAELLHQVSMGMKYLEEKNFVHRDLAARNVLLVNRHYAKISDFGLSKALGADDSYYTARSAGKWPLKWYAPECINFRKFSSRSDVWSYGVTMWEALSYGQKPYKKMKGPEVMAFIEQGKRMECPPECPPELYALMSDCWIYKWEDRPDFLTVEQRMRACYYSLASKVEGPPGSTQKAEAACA
Assay: Inhibition of ZAP70
measured-parameter: Ki

Query :: Output Ki of `Cc1cnc(Nc2ccc(F)cc2Cl)nc1-c1c[nH]c(C(=O)N[C@H](CO)c2cccc(Cl)c2)c1`
Result :: > 4 µM

====

Assay: Plasma concentration in mouse at 5 mg/kg, iv after 8 hrs
Assay type: ADME, organism-based
Parameters: dose 5 mg/kg, route intravenous
measured-parameter: concentration at 8 h

Query :: Output concentration at 8 h of `Cc1cnc(Nc2ccc(F)cc2Cl)nc1-c1c[nH]c(C(=O)N[C@H](CO)c2cccc(Cl)c2)c1`
Result :: 17 ng/mL

====

Biological target: Aurora kinase A (Homo sapiens, UniProt O14965)
Sequence (O14965 whole entry): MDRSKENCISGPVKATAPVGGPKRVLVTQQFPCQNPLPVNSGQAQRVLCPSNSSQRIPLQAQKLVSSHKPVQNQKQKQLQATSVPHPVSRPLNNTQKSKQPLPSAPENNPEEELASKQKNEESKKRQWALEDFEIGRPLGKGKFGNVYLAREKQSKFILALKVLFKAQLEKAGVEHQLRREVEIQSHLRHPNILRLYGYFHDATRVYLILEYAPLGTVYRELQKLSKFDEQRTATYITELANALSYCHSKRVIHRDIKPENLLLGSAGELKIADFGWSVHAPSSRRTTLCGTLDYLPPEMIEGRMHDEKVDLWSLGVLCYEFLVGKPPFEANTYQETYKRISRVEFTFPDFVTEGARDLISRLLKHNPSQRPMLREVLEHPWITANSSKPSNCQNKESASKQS
measured-parameter: pKi
// field semantics: pKi = negative decimal log of concentration (mol/L)

Query :: Output pKi of `CCc1ccccc1Nc1ncc(C)c(-c2c[nH]c(C(=O)N[C@H](CO)c3cccc(Cl)c3)c2)n1`
Result :: 6.14

Query :: Output pKi of `Cc1cnc(Nc2ccc(Cl)cc2F)nc1-c1c[nH]c(C(=O)N[C@H](CO)c2cccc(Cl)c2)c1`
Result :: 6.27

Query :: Output pKi of `Cc1cnc(Nc2cccc3c2CCC3)nc1-c1c[nH]c(C(=O)N[C@H](CO)c2cccc(Cl)c2)c1`
Result :: 6.26

Query :: Output pKi of `Cc1cnc(Nc2cccc3c2OCCO3)nc1-c1c[nH]c(C(=O)N[C@H](CO)c2cccc(Cl)c2)c1`
Result :: 7.96

Query :: Output pKi of `Cc1cnc(Nc2cccc3c2OCO3)nc1-c1c[nH]c(C(=O)N[C@H](CO)c2cccc(Cl)c2)c1`
Result :: 7.82

Query :: Output pKi of `Cc1cnc(Nc2ccccc2F)nc1-c1c[nH]c(C(=O)N[C@H](CO)c2ccccc2)c1`
Result :: 6.80

Query :: Output pKi of `Cc1cnc(Nc2ccccc2O)nc1-c1c[nH]c(C(=O)N[C@H](CO)c2ccccc2)c1`
Result :: 7.00

Query :: Output pKi of `Cc1cnc(Nc2ccccc2Cl)nc1-c1c[nH]c(C(=O)N[C@H](CO)c2ccccc2)c1`
Result :: 5.81

Query :: Output pKi of `Cc1cc(Cl)ccc1Nc1ncc(C)c(-c2c[nH]c(C(=O)N[C@H](CO)c3cccc(Cl)c3)c2)n1`
Result :: 6.39

Query :: Output pKi of `Cc1cnc(Nc2ccccc2)nc1-c1c[nH]c(C(=O)N[C@@H](CO)c2ccccc2)c1`
Result :: 6.57

Query :: Output pKi of `Cc1ccccc1Nc1ncc(C)c(-c2c[nH]c(C(=O)N[C@H](CO)c3ccccc3)c2)n1`
Result :: 6.07

Query :: Output pKi of `Cc1cnc(Nc2cccc(F)c2C)nc1-c1c[nH]c(C(=O)N[C@H](CO)c2cccc(Cl)c2)c1`
Result :: 6.39

Query :: Output pKi of `Cc1cnc(Nc2ccccc2)nc1-c1c[nH]c(C(=O)N[C@H](CO)c2cccc(Cl)c2)c1`
Result :: 7.72

Query :: Output pKi of `Cc1cnc(Nc2ccc(F)cc2Cl)nc1-c1c[nH]c(C(=O)N[C@H](CO)c2cccc(Cl)c2)c1`
Result :: 6.27

Query :: Output pKi of `Cc1cccc([C@@H](CO)NC(=O)c2cc(-c3nc(Nc4ccccc4)ncc3C)c[nH]2)c1`
Result :: 7.35

Query :: Output pKi of `Cc1cnc(Nc2cccc(C)c2C)nc1-c1c[nH]c(C(=O)N[C@H](CO)c2cccc(Cl)c2)c1`
Result :: 6.36
